measurement.description: Pharmacokinetic study in mice (IV and PO), plasma
Assay type: in vivo, mouse
run.parameters: female, C57BL/6; mouse plasma, IV, 1 mg/kg
readout.type: Cmax at 5 min (ng/mL)
Write it as a number; the unit ng/mL goes unstated.

Asked: Recorded Cmax at 5 min for CN(C)C(=O)COc1cnc(N[C@H]2CC[C@@H](Oc3nc(N4CCOCC4)cc4ncccc34)CC2)nc1 , please?
Given back: 2820

----------
assayed.system: DNA-PK phosphorylation at Serine 2056 (Homo sapiens, UniProt P78527)
Construct: FaDu cells were purchased from ATCC; host or cells: FaDu
measurement.description: Cellular Assay for Inhibition of DNA-PK Phosphorylation at Serine 2056 in FaDu cells (sandwich ELISA, neocarzinostatin)
Format: cell-based
run.parameters: pSer2056 DNA-PK, neocarzinostatin 1 μg/mL, Table 1
pIC50: −log10 of the molar value.
Reported pIC50 values follow for various molecules

Past entries and their recorded results:
> print(dat)
                                   molecule                            assayed.system    test.value
1  COc1ccc(NC(=O)N[C@H]2CC[C@@H](Oc3nc(N4CCOCC4)cc4ncccc34)CC2)cc1 [Compound 152]  DNA-PK phosphorylation at Serine 2056 (Homo sapiens, UniProt P78527)  6.00 to 7.00
2  CN(C)C(=O)COc1cnc(C(=O)N[C@H]2CC[C@@H](Oc3nc(N4CCOCC4)cc4ncccc34)CC2)nc1 [Compound 125]  DNA-PK phosphorylation at Serine 2056 (Homo sapiens, UniProt P78527)  6.00 to 7.00
3  O=C(COc1cnc(N[C@H]2CC[C@@H](Oc3nc(N4CCOCC4)cc4ncccc34)CC2)nc1)N1CCCC1 [Compound 74]  DNA-PK phosphorylation at Serine 2056 (Homo sapiens, UniProt P78527)  6.00 to 7.00

Turning now to a further molecule:
Asked: Recorded pIC50 for CCOC(=O)c1cnc(NC2CCOCC2)nc1N[C@H]1CC[C@@H](Oc2nc(N3CCOCC3)cc3ncccc23)CC1 [Compound 93] , please?
Given back: 5.00 to 6.00

----------
measurement.description: Pharmacokinetic study in male Sprague-Dawley rats (IV and PO), plasma
Type: in vivo, rat
run.parameters: male, Sprague-Dawley; rat plasma, PO, 3 mg/kg; read-out: AUCINF—obs
Reported AUC(0-inf) values follow for various molecules
Write it as a number; the unit ng·h/mL goes unstated.

> print(dat)
                         compound.structure  measurement.unit  test.value
1  CN1CCN(CCOc2cnc(N[C@H]3CC[C@@H](Oc4nc(N5CCOCC5)cc5ncccc45)CC3)nc2)CC1           ng·h/mL         308
2  O=C(COc1cnc(N[C@H]2CC[C@@H](Oc3nc(N4CCOCC4)cc4ncccc34)CC2)nc1)N1CCOCC1           ng·h/mL         330

Turning now to a further molecule:
Asked: Recorded AUC(0-inf) for CN(C)C(=O)Cn1ccc2nc(N[C@H]3CC[C@@H](Oc4nc(N5CCOCC5)cc5ncccc45)CC3)ncc21 , please?
Given back: 78.4

----------
assayed.system: DNA-PK phosphorylation at Serine 2056 (Homo sapiens)
Construct: FaDu cells were purchased from ATCC; host or cells: FaDu
measurement.description: Cellular Assay for Inhibition of DNA-PK Phosphorylation at Serine 2056 in FaDu cells (sandwich ELISA, neocarzinostatin)
Format: cell-based
run.parameters: pSer2056 DNA-PK, Table 3
pIC50: −log10 of the molar value.
Reported pIC50 values follow for various compounds

Past entries and their recorded results:
compound	assayed.system	pIC50
Cn1c(CN(c2cnc3cc(N4CCOCC4)nc(O[C@H]4CC[C@@H](Nc5cnc(C#N)cn5)CC4)c3c2)S(C)(=O)=O)cnc1[N+](=O)[O-]	DNA-PK phosphorylation at Serine 2056 (Homo sapiens)	5.00 to 6.00
Cn1ncc(CN(c2cnc3cc(N4CCOCC4)nc(O[C@H]4CC[C@@H](Nc5ncc(OCCN6CCOCC6)cn5)CC4)c3c2)S(C)(=O)=O)c1[N+](=O)[O-]	DNA-PK phosphorylation at Serine 2056 (Homo sapiens)	5.00 to 6.00
CN(C)CCOc1cnc(N[C@H]2CC[C@@H](Oc3nc(N4CCOCC4)cc4ncc(O)cc34)CC2)nc1	DNA-PK phosphorylation at Serine 2056 (Homo sapiens)	> 7.00
CC(c1cnc([N+](=O)[O-])n1C)N(c1cnc2cc(N3CCOCC3)nc(O[C@H]3CC[C@@H](Nc4ncc(N5CCN(C)CC5)cn4)CC3)c2c1)S(C)(=O)=O (stereo partly drawn)	DNA-PK phosphorylation at Serine 2056 (Homo sapiens)	4.52 to 5.00
CS(=O)(=O)Nc1cnc2cc(N3CCOCC3)nc(O[C@H]3CC[C@@H](Nc4ncc(N5CCN(C6COC6)CC5)cn4)CC3)c2c1	DNA-PK phosphorylation at Serine 2056 (Homo sapiens)	> 7.00

Asked: Give the reported pIC50 for CC(c1cnc([N+](=O)[O-])n1C)N(c1cnc2cc(N3CCOCC3)nc(O[C@H]3CC[C@@H](Nc4ncc(OC5CCN(C)C5)cn4)CC3)c2c1)S(C)(=O)=O (stereo partly drawn) (system: DNA-PK phosphorylation at Serine 2056 (Homo sapiens)).
Given back: 5.00 to 6.00

Asked: And the next one, CC(Oc1cnc2cc(N3CCOCC3)nc(O[C@H]3CC[C@@H](N(C)c4ncccn4)CC3)c2c1)c1cnc([N+](=O)[O-])n1C (stereo partly drawn) ?
Given back: 4.52 to 5.00

----------
Test system: pH2AX induction in HCT116 ATM-/- multicellular tumour spheroids
measurement.description: Prodrug Radiation Sensitization in Multicellular Tumour Spheroids, inhibition of pH2AX induction following radiation
Format: cell-based
run.parameters: Homo sapiens, HCT-116, 20 Gy, 5% O2, inner layers, read-out: Prodrug 5% O2 Inner layers EC50
pEC50: −log10 of the molar value.
readout.type: pEC50

Past entries and their recorded results:
> print(dat)
                         compound.structure    test.value
1  CN1CCN(CCOc2cnc(N[C@H]3CC[C@@H](Oc4nc(N5CCOCC5)cc5ncc(N(Cc6cnc([N+](=O)[O-])n6C)S(C)(=O)=O)cc45)CC3)nc2)CC1  5.00 to 6.00
2  CN(C)CCOc1cnc(N[C@H]2CC[C@@H](Oc3nc(N4CCOCC4)cc4ncc(OCc5cnc([N+](=O)[O-])n5C)cc34)CC2)nc1  5.00 to 6.00

Turning now to a further compound:
Asked: Recorded pEC50 for Cn1c(COc2cnc3cc(N4CCOCC4)nc(O[C@H]4CC[C@@H](N(C)c5ncccn5)CC4)c3c2)cnc1[N+](=O)[O-] , please?
Given back: 6.30 to 8.00

----------
Tested on: FaDu cell line
measurement.description: Prodrug Activation in Hypoxic Stirred Tumour Cell Suspensions
run.parameters: 10 μM, 4 hours, 5% O2
readout.type: Fraction of prodrug converted to active form, Oxic 5% O2

molecule	test.value
CC(c1cnc([N+](=O)[O-])n1C)N(c1cnc2cc(N3CCOCC3)nc(O[C@H]3CC[C@@H](Nc4ncc(OCCN(C)C)cn4)CC3)c2c1)S(C)(=O)=O (some centres unmarked)	D (D is 0 to 0.02)
Cn1c(CNS(=O)(=O)c2cnc3cc(N4CCOCC4)nc(O[C@H]4CC[C@@H](Nc5ncc(C(F)(F)F)cn5)CC4)c3c2)cnc1[N+](=O)[O-]	D (D is 0 to 0.02)
CC(c1cnc([N+](=O)[O-])n1C)N(c1cnc2cc(N3CCOCC3)nc(O[C@H]3CC[C@@H](Nc4ncc(N5CCN(C)CC5)cn4)CC3)c2c1)S(C)(=O)=O (some centres unmarked)	D (D is 0 to 0.02)
Cn1ncc(CN(c2cnc3cc(N4CCOCC4)nc(O[C@H]4CC[C@@H](Nc5ncc(OCCN6CCOCC6)cn5)CC4)c3c2)S(C)(=O)=O)c1[N+](=O)[O-]	B (B is 0.05 to 0.15)
CN1CCC(Oc2cnc(N[C@H]3CC[C@@H](Oc4nc(N5CCOCC5)cc5ncc(N(Cc6cnn(C)c6[N+](=O)[O-])S(C)(=O)=O)cc45)CC3)nc2)C1 (some centres unmarked)	B (B is 0.05 to 0.15)

Asked: Recorded Fraction of prodrug converted to active form, Oxic 5% O2 for Cc1ccc(N[C@H]2CC[C@@H](Oc3nc(N4CCOCC4)cc4ncc(OC(C)c5cnc([N+](=O)[O-])n5C)cc34)CC2)nc1 (some centres unmarked) , please?
Given back: D (D is 0 to 0.02)

Asked: And the next one, CC(Oc1cnc2cc(N3CCOCC3)nc(O[C@H]3CC[C@@H](Nc4ncc(OCCN5CCOCC5)cn4)CC3)c2c1)c1cnc([N+](=O)[O-])n1C (some centres unmarked) ?
Given back: B (B is 0.05 to 0.15)

Asked: And the next one, Cn1c(COc2cnc3cc(N4CCOCC4)nc(O[C@H]4CC[C@@H](Nc5ncccn5)CC4)c3c2)cnc1[N+](=O)[O-] ?
Given back: C (C is 0.02 to 0.05)
